assay-explanation: qHTS to identify inhibitors of the type 1 interferon - major histocompatibility complex class I in skeletal muscle: primary screen against the NCATS Mechanism Interrogation Plate v5.0 (MIPE) Libary (AID 1347411);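 also: plate controls were vehicle for no effect and reference inhibitor for full effect; nearly all actives have a fitted effect of over 65% in size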
experimental-parameters: iHSKM cells + IFN-b, HiBiT-tagged MHC-I luminescence, 24 h; series mostly up to 45.8 µM
Inconclusive results are not listed. Calls of active or inactive are those of the source. Calls follow the shape of the dose curve; as a rule, active = well fitted inhibition curve with a large enough effect; inconclusive = small, poorly fitted or top-dose-only effect; inactive = no such curve, though single readings can be large or run the other way.
Please state which outcome applies, choosing from Yes (active), No (inactive)

compound: NCCCC(O)(P(=O)(O)O)P(=O)(O)O
label: No

compound: Nc1nc(=S)c2[nH]cnc2[nH]1
label: No

compound: Nc1nc(N)nc(-c2cc(Cl)ccc2Cl)n1
label: No

How was `COC(c1ccccc1)(c1ccccc1)[C@H](Oc1nc(C)cc(C)n1)C(=O)O` classified in this test?
No

How was `CC(C)(C#N)c1cc(Cn2cncn2)cc(C(C)(C)C#N)c1` classified in this test?
No

How was CCOCC(O)COc1ccc(NC(=O)CC[S+](C)C)cc1 (centres undefined) classified in this test?
No

How was `COc1ccc(-c2ccc3cc(C(=O)O)ccc3c2)cc1C12CC3CC(CC(C3)C1)C2` classified in this test?
No

How was `C#CCN[C@@H]1CCc2ccccc21` classified in this test?
No

How was `CCc1cc(C(N)=S)ccn1` classified in this test?
No

How was `CCOC(=O)c1ccc(OC(=O)CCCCCN=C(N)N)cc1` classified in this test?
No

How was O=C(O)C1CCCN(CCC=C(c2ccccc2)c2ccccc2)C1 (centres undefined) classified in this test?
No

* * *

assay-explanation: qHTS of pediatric cancer cell lines to identify multiple opportunities for drug repurposing: Confirmatory screen for RD cells (AID 1347124);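 also: cells exposed to compound for 48 h before viability readout; nearly all actives have a fitted effect of over 65% in size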; also: potency is read from the fitted curve at half-maximal effect
experimental-parameters: RD rhabdomyosarcoma cell viability; series mostly up to 45.9 µM
Description: Drug repurposing or repositioning has been offered as a strategy for drug development in oncology programs. […] [1] Shen, M et al. Quantitative high-throughput phenotypic screening of pediatric cancer cell lines identifies multiple opportunities for drug repurposing. […] Cells were assayed in growth media at a density of 500-1,000 cells/well. […] After a 15 min incubation at room temperature, samples were analyzed for luminescence intensity using a ViewLux High-throughput CCD imager equipped with clear filters.
Records with an inconclusive call do not appear. Active and inactive are the calls of the source. The call rests on the fitted dose curve; in most records, active means well fitted cell-killing curve with a large enough effect; inconclusive means small, poorly fitted or top-dose-only effect, or effect the other way; inactive means no such curve, though single readings can be large or run the other way.
readout-name: Potency

molecule: COc1nc(N)nc2c1ncn2[C@@H]1O[C@H](CO)[C@@H](O)[C@@H]1O
Potency: inactive

molecule: CNS(=O)(=O)CCc1ccc2[nH]cc(C3CCN(C)CC3)c2c1
Potency: inactive

molecule: CS(=O)(=O)c1ccc([C@@H](O)[C@@H](CO)NC(=O)C(Cl)Cl)cc1
Potency: inactive

molecule: CCC(=O)O[C@]1(C(=O)CCl)[C@@H](C)C[C@H]2[C@@H]3CCC4=CC(=O)C=C[C@]4(C)[C@@]3(F)[C@@H](O)C[C@@]21C
Potency: inactive

Read off the recorded Potency for `CC(C)(C)C(=O)OCOP(=O)(COCCn1cnc2c(N)ncnc21)OCOC(=O)C(C)(C)C`
inactive

Read off the recorded Potency for CC1CC2C3CCC4=CC(=O)C=C[C@]4(C)[C@@]3(F)[C@@H](O)C[C@]2(C)[C@@]1(O)C(=O)CO (stereo partly specified)
inactive

Read off the recorded Potency for `Oc1c(Cl)cc(Cl)c2cccnc12`
13.1 µM (active)

Read off the recorded Potency for `CN(C)c1ccc(C(=C2C=CC(=[N+](C)C)C=C2)c2ccc(N(C)C)cc2)cc1`
0.928 µM (active)

Read off the recorded Potency for `COc1ccc(C(=O)CC(=O)c2ccc(C(C)(C)C)cc2)cc1`
inactive

Read off the recorded Potency for `S=P(N1CC1)(N1CC1)N1CC1`
inactive

Read off the recorded Potency for CC(C)NCC(O)c1ccc(NS(C)(=O)=O)cc1 (stereo unspecified)
inactive

* * *

assay-explanation: Quantitative High-Throughput drug screen in 47 multiple myeloma cell lines against the NCATS MIPE library collection: AMO1_DSMZ cell viability assay (AID 1918927; also: nearly all actives have a fitted effect of over 30% in size)
experimental-parameters: AMO1 myeloma cells viability, CellTiter-Glo ATP luminescence, 48 h; series mostly up to 45.8 µM
Records with an inconclusive call do not appear. The source made the active and inactive calls. Calls come from the whole dose curve; as a rule, active = well fitted cell-killing curve with a large enough effect; inconclusive = small, poorly fitted or top-dose-only effect, or effect the other way; inactive = no such curve, though single readings can be large or run the other way.
Please state which outcome applies, choosing from true (1) (active), false (0) (inactive)

compound: CCc1cc(C(N)=S)ccn1
label: false (0)

compound: CC(C)C[C@H](NC(=O)[C@H](CCc1ccccc1)NC(=O)CN1CCOCC1)C(=O)N[C@@H](Cc1ccccc1)C(=O)N[C@@H](CC(C)C)C(=O)[C@@]1(C)CO1
label: true (1)

compound: NCCCC(O)(P(=O)(O)O)P(=O)(O)O
label: false (0)

compound: Cn1nnc2c(C(N)=O)ncn2c1=O
label: false (0)

compound: CCCc1nc(C)c2c(=O)[nH]c(-c3cc(S(=O)(=O)N4CCN(CC)CC4)ccc3OCC)nn12
label: true (1)

compound: COc1ccc2c(c1)c(CC(=O)OCC(=O)O)c(C)n2C(=O)c1ccc(Cl)cc1
label: false (0)

compound: Cc1nnc(C(=O)NC(C)(C)c2nc(C(=O)NCc3ccc(F)cc3)c(O)c(=O)n2C)o1
label: true (1)

compound: CCCCc1oc2ccc(NS(C)(=O)=O)cc2c1C(=O)c1ccc(OCCCN(CCCC)CCCC)cc1
label: true (1)

How was `CN(Cc1cc(Br)cc(Br)c1N)C1CCCCC1` classified in this test?
false (0)

How was `CC(=O)[C@H]1CC[C@H]2[C@@H]3CC=C4C[C@@H](O)CC[C@]4(C)[C@H]3CC[C@]12C` classified in this test?
false (0)

How was Cn1c(=O)c2c(ncn2CC(O)CO)n(C)c1=O (configuration not stated) classified in this test?
false (0)

How was `CN(C)CCc1c[nH]c2ccc(CS(=O)(=O)N3CCCC3)cc12` classified in this test?
false (0)

How was `COCCCOc1cc(C[C@@H](C[C@H](N)[C@@H](O)C[C@H](C(=O)NCC(C)(C)C(N)=O)C(C)C)C(C)C)ccc1OC` classified in this test?
false (0)

How was `Cc1cccc(Nc2ccncc2S(=O)(=O)NC(=O)NC(C)C)c1` classified in this test?
false (0)

How was `CC(C)Cn1cnc2c(N)nc3ccccc3c21` classified in this test?
true (1)

How was `CN(C)CCc1c[nH]c2ccc(C[C@H]3COC(=O)N3)cc12` classified in this test?
false (0)

How was `COc1cc(NCc2ccc3nc(N)nc(N)c3c2C)cc(OC)c1OC` classified in this test?
true (1)

* * *

assay-explanation: Quantitative High-Throughput drug screen in 47 multiple myeloma cell lines against the NCATS MIPE library collection: KMS21BM_JCRB cell viability assay (AID 1918974)
experimental-parameters: ATP luminescence, 48 h
Results filed as inconclusive are left out. The source made the active and inactive calls. Calls follow the shape of the dose curve; as a rule, active = well fitted cell-killing curve with a large enough effect; inconclusive = small, poorly fitted or top-dose-only effect, or effect the other way; inactive = no such curve, though single readings can be large or run the other way.
Please state which outcome applies, choosing from 1 (yes) for active, 0 (no) for inactive

Worked examples follow.
smiles-repr: COc1cc2c(Nc3ccc(Br)cc3F)ncnc2cc1OCC1CCN(C)CC1
label: 0 (no)
//
smiles-repr: CCC(=O)O[C@]1(C(=O)CCl)[C@@H](C)C[C@H]2[C@@H]3CCC4=CC(=O)C=C[C@]4(C)[C@@]3(F)[C@@H](O)C[C@@]21C
label: 0 (no)
//
smiles-repr: O=c1cc(O)c(Cl)c[nH]1
label: 1 (yes)
//
smiles-repr: COc1ccc2cc3[n+](cc2c1OC)CCc1cc2c(cc1-3)OCO2
label: 1 (yes)
//
smiles-repr: O=C(O)c1ccc(-n2nc(-c3ccccc3O)nc2-c2ccccc2O)cc1
label: 1 (yes)

How was `Cc1ccc(S(=O)(=O)N[C@@H](Cc2ccccc2)C(=O)CCl)cc1` classified in this test?
1 (yes)

How was `COc1cc(NS(=O)(=O)c2ccc(N)cc2)nc(OC)n1` classified in this test?
0 (no)

How was `Nc1nc(F)nc2c1ncn2[C@@H]1O[C@H](CO)[C@@H](O)[C@@H]1O` classified in this test?
1 (yes)

How was `COc1cc2nc(N3CCCN(C)CC3)nc(NC3CCN(Cc4ccccc4)CC3)c2cc1OC` classified in this test?
1 (yes)

* * *

assay-explanation: Quantitative High-Throughput drug screen in 47 multiple myeloma cell lines against the NCATS MIPE library collection: OCIMY1_PLB cell viability assay (AID 1918979); also: nearly all actives have a fitted effect of over 35% in size;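 as to viability: 100% = DMSO-only wells and 0% = cell-free media-only wells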
experimental-parameters: OCI-MY1 myeloma viability, CellTiter-Glo ATP, 48 h; series mostly up to 45.8 µM
Records with an inconclusive call do not appear. Activity calls are given as the source filed them. Calls follow the shape of the dose curve; as a rule, active = well fitted cell-killing curve with a large enough effect; inconclusive = small, poorly fitted or top-dose-only effect, or effect the other way; inactive = no such curve, though single readings can be large or run the other way.
Please state which outcome applies, choosing from active, inactive

compound: Cc1cccc(Nc2ccncc2S(=O)(=O)NC(=O)NC(C)C)c1
label: inactive
//
compound: COC(=O)Nc1nc2ccc(C(=O)c3ccccc3)cc2[nH]1
label: active
//
compound: CNNCc1ccc(C(=O)NC(C)C)cc1
label: inactive

How was `COC(=O)Nc1nc2ccc(Sc3ccccc3)cc2[nH]1` classified in this test?
active

How was `CCN(CC)CCn1c(=O)c(Cc2ccc(OC)cc2)nc2ccccc21` classified in this test?
inactive

How was `CC(=O)[C@H]1CC[C@H]2[C@@H]3CC=C4C[C@@H](O)CC[C@]4(C)[C@H]3CC[C@]12C` classified in this test?
inactive

How was `COc1cc2nc(N3CCCN(C)CC3)nc(NC3CCN(Cc4ccccc4)CC3)c2cc1OC` classified in this test?
active

How was CCCCS(=N)(=O)CCC(N)C(=O)O (stereo not drawn) classified in this test?
inactive
